Just for reference, paper PMC6151560 is where these values come from.

The entries below come with measured MIC values attached.
system: Staphylococcus aureus (ATCC 14458); assay: Antibacterial broth microdilution (MIC/MBC), S. aureus; conditions: ATCC14458, 24 h, read-out: Sa MIC, Staphylococcus aureus, broth microdilution, 24 h, tested 3.9 to 500 µM

| structure_smiles_string | MIC |
| --- | --- |
| COc1cccc(C(=O)/C=C/C=C/c2ccccc2)c1 | ≥ 296 µM |
| COc1cc(C(=O)/C=C/C=C/c2ccccc2)ccc1O | 279 µM |
| Nc1cccc(C(=O)/C=C/C=C/c2ccccc2)c1 | > 500 µM |
| O=C(/C=C/C=C/c1ccccc1)c1cccc(O)c1 | 77.9 µM |
| O=C(/C=C/C=C/c1ccccc1)c1cccc(C(F)(F)F)c1 | > 500 µM |
| Cc1ccc(C(=O)/C=C/C=C/c2ccccc2)cc1 | > 500 µM |
| O=C(/C=C/C=C/c1ccccc1)c1ccc(F)cc1 | > 500 µM |
| COc1ccc(C(=O)/C=C/C=C/c2ccccc2)cc1 | ≥ 296 µM |
| O=C(/C=C/C=C/c1ccccc1)c1ccccc1 | > 500 µM |
| O=C(/C=C/C=C/c1ccccc1)c1ccc([N+](=O)[O-])cc1 | > 500 µM |
| O=C(/C=C/C=C/c1ccccc1)c1cccc([N+](=O)[O-])c1 | > 500 µM |
| Cc1cccc(C(=O)/C=C/C=C/c2ccccc2)c1 | > 500 µM |
| O=C(/C=C/C=C/c1ccccc1)c1ccc(Cl)c(Cl)c1 | > 500 µM |

* * *

In this section, each of the molecules is paired with its reported MIC.
system: Streptococcus mutans (ATCC 25175); test: Antibacterial broth microdilution (MIC/MBC), S. mutans; conditions: ATCC25175, 24 h, read-out: Sm MIC

| molecule | MIC |
| --- | --- |
| O=C(/C=C/C=C/c1ccccc1)c1ccc(Br)cc1 | > 500 µM |
| O=C(/C=C/C=C/c1ccccc1)c1ccc(O)cc1 | 156 µM |
| O=C/C=C/c1ccccc1 [Compound 1, Cinnamaldehyde, reference compound] | > 500 µM |
| O=C(/C=C/C=C/c1ccccc1)c1ccc(Cl)cc1 | > 500 µM |

* * *

Entries annotated with measured chromatographic logP
test: physchem

| structure_smiles_string | chromatographic logP |
| --- | --- |
| O=C(/C=C/C=C/c1ccccc1)c1ccc(Br)cc1 | 3.8 |
| O=C(/C=C/C=C/c1ccccc1)c1ccc(O)cc1 | 2.6 |
| O=C(/C=C/C=C/c1ccccc1)c1ccc(Cl)cc1 | 3.7 |

* * *

assay: in vitro; conditions: human

| structure_smiles_string | IC50 (µM) |
| --- | --- |
| O=C(/C=C/C=C/c1ccccc1)c1ccc(O)cc1 | 53.1 |

* * *

system: Staphylococcus aureus (ATCC 14458); assay: Antibacterial broth microdilution (MIC/MBC), S. aureus; conditions: ATCC14458, read-out: Sa MBC
# criterion met = MBC below 80 µM (exclusive); criterion not met = MBC at/above 80 µM

| molecule | experimental_target | class_name |
| --- | --- | --- |
| COc1cc(C(=O)/C=C/C=C/c2ccccc2)ccc1O | Staphylococcus aureus (ATCC 14458) | criterion not met |
| COc1cccc(C(=O)/C=C/C=C/c2ccccc2)c1 | Staphylococcus aureus (ATCC 14458) | criterion not met |
| O=C(/C=C/C=C/c1ccccc1)c1cccc(O)c1 | Staphylococcus aureus (ATCC 14458) | criterion not met |
| CN[C@H](CC(C)C)C(=O)N[C@H]1C(=O)N[C@@H](CC(N)=O)C(=O)N[C@H]2C(=O)N[C@H]3C(=O)N[C@H](C(=O)N[C@H](C(=O)O)c4cc(O)cc(O)c4-c4cc3ccc4O)[C@H](O)c3ccc(c(Cl)c3)Oc3cc2cc(c3O[C@@H]2O[C@H](CO)[C@@H](O)[C@H](O)[C@H]2O[C@H]2C[C@](C)(N)[C@H](O)[C@H](C)O2)Oc2ccc(cc2Cl)[C@H]1O [VAN, vancomycin, reference compound] | Staphylococcus aureus (ATCC 14458) | criterion met |
